B1: glmS ribozyme (parent)
chain: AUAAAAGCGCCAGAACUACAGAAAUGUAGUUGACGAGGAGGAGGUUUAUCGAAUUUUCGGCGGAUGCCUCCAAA

# Variants of: B1
# protocol: self-cleavage kobs at 10000 uM GlcN6P; higher = faster cleavage; RNA array
# condition.description: with glucosamine-6-phosphate
Fewer inactive variants are shown than the library holds.
Kindly state self-cleavage kobs at 10000 uM GlcN6P for each of the entries shown.
Numbers only, in s⁻¹.

Recorded self-cleavage kobs at 10000 uM GlcN6P, per entry:
A39C A52G | 0.000217
U47C C58U | 4.92e-05
U55C C58G | 9.91e-05
C16U G43U | 3.73e-05
U47G A53G | 0.0074
U49G U55G U65G | 6.42e-05
A39G U57A | 0.000335
A53U C58A | 0.000256
C11A U56A | 0.000118
G35U U47A C50G C70U | 0.000429

Here are 8 variants. What values of self-cleavage kobs at 10000 uM GlcN6P were reported for them?
1. C11U C58G C68U
2. A53G U65C
3. A42U C70A
4. A12U U46G A48G
5. U69A C70U
6. U54A C70G
7. A14G U49G U55C
8. A14C U54G C70A

Result string:
1: 5.66e-05; 2: 0.000644; 3: 0.00012; 4: 9.42e-05; 5: 6.03e-05; 6: 0.000131; 7: 0.00199; 8: 7.96e-05

Record self-cleavage kobs at 10000 uM GlcN6P for all entries; do not skip any.
1. G29C G40C
2. A39C G43U C68U
3. G32A C71A

Result string:
1. 8.84e-05
2. 7.63e-05
3. 0.00052

Query string: Please give the measured self-cleavage kobs at 10000 uM GlcN6P for this variant: C16A C71A
Result string: 0.000114
